measured on: UniProtKB Q8TDU6
Sequence (Q8TDU6 whole entry): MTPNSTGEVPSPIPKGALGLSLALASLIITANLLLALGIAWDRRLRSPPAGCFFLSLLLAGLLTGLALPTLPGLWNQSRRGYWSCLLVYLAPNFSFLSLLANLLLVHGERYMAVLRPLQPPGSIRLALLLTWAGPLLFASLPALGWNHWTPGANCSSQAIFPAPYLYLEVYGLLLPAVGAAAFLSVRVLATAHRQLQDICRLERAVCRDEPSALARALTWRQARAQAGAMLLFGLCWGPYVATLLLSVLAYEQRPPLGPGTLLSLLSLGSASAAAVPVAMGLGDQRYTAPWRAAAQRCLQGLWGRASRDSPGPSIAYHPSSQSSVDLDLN
assay details: Agonist activity at human TGR5 expressed in HEK293 cells assessed as increase in intracellular cAMP level after 1 hr by TR-FRET assay
measured property: pEC50
Numbers only, as −log10 of the molar value.

Would you be so kind as to report pEC50 for each listed record?
1. CC[C@H]1[C@@H](O)[C@@H]2[C@H](CC[C@]3(C)[C@@H]([C@H](C)CCNC(=O)O[C@H]4CCOC4)CC[C@@H]23)[C@@]2(C)CC[C@@H](O)C[C@@H]12
2. CC[C@H]1[C@@H](O)[C@@H]2[C@H](CC[C@]3(C)[C@@H]([C@H](C)CCNC(=O)C(=O)O)CC[C@@H]23)[C@@]2(C)CC[C@@H](O)C[C@@H]12
3. CC[C@H]1[C@@H](O)[C@@H]2[C@H](CC[C@]3(C)[C@@H]([C@H](C)CCC(=O)NS(C)(=O)=O)CC[C@@H]23)[C@@]2(C)CC[C@@H](O)C[C@@H]12
4. CC[C@H]1[C@@H](O)[C@@H]2[C@H](CC[C@]3(C)[C@@H]([C@H](C)CCc4nnn[nH]4)CC[C@@H]23)[C@@]2(C)CC[C@@H](O)C[C@@H]12
5. CC[C@H]1[C@@H](O)[C@@H]2[C@H](CC[C@]3(C)[C@@H]([C@H](C)CCNC(=O)N4CC[C@H](O)C4)CC[C@@H]23)[C@@]2(C)CC[C@@H](O)C[C@@H]12
6. CCOC(=O)NCC[C@@H](C)[C@H]1CC[C@H]2[C@@H]3[C@H](O)[C@H](CC)[C@@H]4C[C@H](O)CC[C@]4(C)[C@H]3CC[C@]12C
7. CC[C@H]1[C@@H](O)[C@@H]2[C@H](CC[C@]3(C)[C@@H]([C@H](C)CCNC(=O)NC4CC4)CC[C@@H]23)[C@@]2(C)CC[C@@H](O)C[C@@H]12
8. CC[C@H]1[C@@H](O)[C@@H]2[C@H](CC[C@]3(C)[C@@H]([C@H](C)CCc4cc(O)no4)CC[C@@H]23)[C@@]2(C)CC[C@@H](O)C[C@@H]12

[out]
1: 6.62; 2: 6.62; 3: 6.15; 4: 5.75; 5: 6.80; 6: 6.55; 7: 6.38; 8: 6.28

---

measured on: Bile acid receptor (Homo sapiens) (UniProt Q96RI1)
assay details: Agonist activity at recombinant human GST-tagged FXR LBD (193 to 472 residues) expressed in baculovirus-infected insect cells assessed as recruitment of biotinylated SRC1 peptide measured after 1 hr by Alphascreen assay relative to CDCA
Assignment: determine reported Efficacy for the given compounds.
Give bare numbers, in %.

CC[C@H]1[C@@H](O)[C@@H]2[C@H](CC[C@]3(C)[C@@H]([C@H](C)CCNC(=O)C(=O)O)CC[C@@H]23)[C@@]2(C)CC[C@@H](O)C[C@@H]12 ... 109
CC[C@H]1[C@@H](O)[C@@H]2[C@H](CC[C@]3(C)[C@@H]([C@H](C)CCCNC(N)=O)CC[C@@H]23)[C@@]2(C)CC[C@@H](O)C[C@@H]12 ... 95

Per the records, this compound ( `CC[C@H]1[C@@H](O)[C@@H]2[C@H](CC[C@]3(C)[C@@H]([C@H](C)CCNC(=O)OC)CC[C@@H]23)[C@@]2(C)CC[C@@H](O)C[C@@H]12` ) has Efficacy equal to 149

---

Species on record: Homo sapiens
assay details: Selectivity ratio of EC50 for recombinant human GST-tagged FXR LBD (193 to 472 residues) expressed in baculovirus-infected insect cells to EC50 for human TGR5 expressed in HEK293 cells
measured property: Ratio EC50
One number for each entry.

Field: example entries. Status: answers known.
CC[C@H]1[C@@H](O)[C@@H]2[C@H](CC[C@]3(C)[C@@H]([C@H](C)CCNC(=O)C(=O)O)CC[C@@H]23)[C@@]2(C)CC[C@@H](O)C[C@@H]12 ... 12
CC[C@H]1[C@@H](O)[C@@H]2[C@H](CC[C@]3(C)[C@@H]([C@H](C)CCNC(=O)NC4CC4)CC[C@@H]23)[C@@]2(C)CC[C@@H](O)C[C@@H]12 ... 6

// below: Ratio EC50 requested for another compound
Note to self: Ratio EC50 recorded for `CC[C@H]1[C@@H](O)[C@@H]2[C@H](CC[C@]3(C)[C@@H]([C@H](C)CCc4nn[nH]n4)CC[C@@H]23)[C@@]2(C)CC[C@@H](O)C[C@@H]12` was 30

---

assay details: Drug level in C57BL/6 mouse plasma at 2 mg/kg, po administered as single dose via gavage measured at 0.5 hrs post dose by LC-MS/MS analysis
Format: ADME, organism-based
Classification field: enter Met for concentration at 0.5 h values not below 200 nM, Not met for values below it.

Example entries begin here.
CC[C@H]1[C@@H](O)[C@@H]2[C@H](CC[C@]3(C)[C@@H]([C@H](C)CCC(=O)O)CC[C@@H]23)[C@@]2(C)CC[C@@H](O)C[C@@H]12 ... Not met
CC[C@H]1[C@@H](O)[C@@H]2[C@H](CC[C@]3(C)[C@@H]([C@H](C)CCc4nnn[nH]4)CC[C@@H]23)[C@@]2(C)CC[C@@H](O)C[C@@H]12 ... Met
CC[C@H]1[C@@H](O)[C@@H]2[C@H](CC[C@]3(C)[C@@H]([C@H](C)CCc4cc(O)no4)CC[C@@H]23)[C@@]2(C)CC[C@@H](O)C[C@@H]12 ... Not met
CC[C@H]1[C@@H](O)[C@@H]2[C@H](CC[C@]3(C)[C@@H]([C@H](C)CCC(=O)NS(C)(=O)=O)CC[C@@H]23)[C@@]2(C)CC[C@@H](O)C[C@@H]12 ... Not met

[in] hey, is concentration at 0.5 h for this one >= 200 nM? `CC[C@H]1[C@@H](O)[C@@H]2[C@H](CC[C@]3(C)[C@@H]([C@H](C)CCNC(=O)C(=O)O)CC[C@@H]23)[C@@]2(C)CC[C@@H](O)C[C@@H]12`
[out] Not met

---

measured on: Bile acid receptor (Homo sapiens, UniProt Q96RI1)
assay details: Agonist activity at recombinant human GST-tagged FXR LBD (193 to 472 residues) expressed in baculovirus-infected insect cells assessed as recruitment of biotinylated SRC1 peptide measured after 1 hr by Alphascreen assay
measured property: pEC50
Numbers only, as −log10 of the molar value.

Please review the entries below; each comes with its answer.
CC[C@H]1[C@@H](O)[C@@H]2[C@H](CC[C@]3(C)[C@@H]([C@H](C)CCC(=O)O)CC[C@@H]23)[C@@]2(C)CCC3(CC3)C[C@@H]12 ... 6.15
CC[C@H]1[C@@H](O)[C@@H]2[C@H](CC[C@]3(C)[C@@H]([C@H](C)CCNS(=O)(=O)c4ccccc4)CC[C@@H]23)[C@@]2(C)CC[C@@H](O)C[C@@H]12 ... 6.33
CC[C@H]1[C@@H](O)[C@@H]2[C@H](CC[C@]3(C)[C@@H]([C@H](C)CCNC(=O)N4CC[C@H](O)C4)CC[C@@H]23)[C@@]2(C)CC[C@@H](O)C[C@@H]12 ... 7.10

Hey, quick one: what's pEC50 for each of these?
1. CC[C@H]1[C@@H](O)[C@@H]2[C@H](CC[C@]3(C)[C@@H]([C@H](C)CCNC(=O)OCc4ccccc4)CC[C@@H]23)[C@@]2(C)CC[C@@H](O)C[C@@H]12
2. CC[C@H]1[C@@H](O)[C@@H]2[C@H](CC[C@]3(C)[C@@H]([C@H](C)CCNC(=O)C(=O)O)CC[C@@H]23)[C@@]2(C)CC[C@@H](O)C[C@@H]12

[out]
1. 6.52
2. 7.70

---

Kindly state Efficacy for each of the entries shown.
measured on: Bile acid receptor (Homo sapiens) (UniProt Q96RI1)
Sequence (whole entry): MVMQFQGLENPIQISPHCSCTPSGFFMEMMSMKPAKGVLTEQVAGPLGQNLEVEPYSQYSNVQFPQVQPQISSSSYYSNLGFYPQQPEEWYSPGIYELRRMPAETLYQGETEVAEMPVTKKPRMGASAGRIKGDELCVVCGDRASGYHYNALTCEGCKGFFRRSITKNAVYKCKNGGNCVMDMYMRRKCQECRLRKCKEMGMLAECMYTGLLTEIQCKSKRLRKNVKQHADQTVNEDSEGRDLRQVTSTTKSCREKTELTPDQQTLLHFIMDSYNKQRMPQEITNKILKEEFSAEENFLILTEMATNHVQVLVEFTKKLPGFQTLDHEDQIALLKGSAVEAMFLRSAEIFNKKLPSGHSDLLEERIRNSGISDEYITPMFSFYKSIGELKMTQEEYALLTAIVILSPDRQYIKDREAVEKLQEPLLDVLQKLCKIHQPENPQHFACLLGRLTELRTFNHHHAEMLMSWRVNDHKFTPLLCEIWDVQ
assay details: Agonist activity at recombinant human GST-tagged FXR LBD (193 to 472 residues) expressed in baculovirus-infected insect cells assessed as recruitment of biotinylated SRC1 peptide measured after 1 hr by Alphascreen assay relative to CDCA
Answers are plain numbers, in %.

Solved cases (5 shown):
CC[C@H]1[C@@H](O)[C@@H]2[C@H](CC[C@]3(C)[C@@H]([C@H](C)CCNC(=O)N4CC[C@H](O)C4)CC[C@@H]23)[C@@]2(C)CC[C@@H](O)C[C@@H]12 ... 115
CC[C@H]1[C@@H](O)[C@@H]2[C@H](CC[C@]3(C)[C@@H]([C@H](C)CCNC(N)=O)CC[C@@H]23)[C@@]2(C)CC[C@@H](O)C[C@@H]12 ... 104
CC[C@H]1[C@@H](O)[C@@H]2[C@H](CC[C@]3(C)[C@@H]([C@H](C)CCNC(=O)O[C@H]4CCOC4)CC[C@@H]23)[C@@]2(C)CC[C@@H](O)C[C@@H]12 ... 109
CCOC(=O)NCC[C@@H](C)[C@H]1CC[C@H]2[C@@H]3[C@H](O)[C@H](CC)[C@@H]4C[C@H](O)CC[C@]4(C)[C@H]3CC[C@]12C ... 138
CC[C@H]1[C@@H](O)[C@@H]2[C@H](CC[C@]3(C)[C@@H]([C@H](C)CCc4nn[nH]n4)CC[C@@H]23)[C@@]2(C)CC[C@@H](O)C[C@@H]12 ... 153

List the reported Efficacy of each compound below.
1. CC[C@H]1[C@@H](O)[C@@H]2[C@H](CC[C@]3(C)[C@@H]([C@H](C)CCCNS(=O)(=O)c4ccccc4)CC[C@@H]23)[C@@]2(C)CC[C@@H](O)C[C@@H]12
2. CC[C@H]1[C@@H](O)[C@@H]2[C@H](CC[C@]3(C)[C@@H]([C@H](C)CCNC(=O)c4ccccn4)CC[C@@H]23)[C@@]2(C)CC[C@@H](O)C[C@@H]12

[out]
1: 79; 2: 88
